Several publications report pIC50 on Androgen receptor (Homo sapiens); those values are gathered here.
- measured on: Androgen receptor (Homo sapiens)
- Sequence (P10275 whole entry): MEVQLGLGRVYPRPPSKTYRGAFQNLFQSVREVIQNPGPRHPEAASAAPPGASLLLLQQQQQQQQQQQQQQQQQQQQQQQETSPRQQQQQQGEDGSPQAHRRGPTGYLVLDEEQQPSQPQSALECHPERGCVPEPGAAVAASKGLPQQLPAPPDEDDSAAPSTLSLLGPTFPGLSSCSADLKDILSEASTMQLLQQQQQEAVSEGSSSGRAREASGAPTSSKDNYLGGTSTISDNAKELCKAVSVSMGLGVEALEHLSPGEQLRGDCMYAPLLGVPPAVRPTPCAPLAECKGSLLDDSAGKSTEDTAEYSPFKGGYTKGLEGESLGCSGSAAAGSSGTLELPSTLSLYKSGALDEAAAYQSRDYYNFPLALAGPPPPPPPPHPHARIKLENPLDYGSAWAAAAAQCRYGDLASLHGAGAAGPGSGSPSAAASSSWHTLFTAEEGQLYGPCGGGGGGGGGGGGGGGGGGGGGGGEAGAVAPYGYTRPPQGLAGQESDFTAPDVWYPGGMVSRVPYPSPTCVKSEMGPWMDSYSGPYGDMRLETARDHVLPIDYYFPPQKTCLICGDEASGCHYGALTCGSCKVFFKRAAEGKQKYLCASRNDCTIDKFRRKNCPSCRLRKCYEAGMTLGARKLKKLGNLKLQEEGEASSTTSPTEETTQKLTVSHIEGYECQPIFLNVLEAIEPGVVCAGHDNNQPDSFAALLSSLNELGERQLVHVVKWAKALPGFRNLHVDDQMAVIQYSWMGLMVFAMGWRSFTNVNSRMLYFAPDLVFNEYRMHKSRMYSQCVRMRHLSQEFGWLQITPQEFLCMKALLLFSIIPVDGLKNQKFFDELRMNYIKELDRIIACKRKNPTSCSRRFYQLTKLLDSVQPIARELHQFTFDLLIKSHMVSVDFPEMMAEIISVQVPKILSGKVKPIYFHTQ
Scale: negative log10 of molar concentration, which is what pIC50 denotes.

query: Can you look up the measured pIC50 of Fc1ccc(C2=NOC3CCCCC23)c(C(F)(F)F)c1 (cis isomer) for me?
result: 5.94

query: Can you share its pIC50? I mean this compound: OC1(C(F)(F)F)CCCc2c1[nH]c1c(Cl)ccc(Cl)c21 (stereo not given)
result: 7.07

query: Can you look up the measured pIC50 of CC(=O)c1ccc(NC(=O)N2C[C@H](C)N(c3ccc(C#N)c(C(F)(F)F)c3)C[C@H]2C)cn1 (racemic) for me?
result: 6.30

query: State the recorded pIC50 for this entry: OC1(C(F)(F)F)CCCc2c1[nH]c1c(Cl)cc(F)cc21 (stereo not given)
result: 7.05

query: Which value of pIC50 has been reported for Fc1ccc(C2=NOC3CCCCCCC23)c(C(F)(F)F)c1 (cis isomer; cis) in the records?
result: 4.88

query: // lookup pIC50 for Fc1ccc(C2=NOC3CCCCCC23)cc1C(F)(F)F (racemic)
result: 4.96

query: Given `O=[N+]([O-])c1ccc(C2=NO[C@H]3CCCC[C@@H]23)c(C(F)(F)F)c1` , state its recorded pIC50.
result: 6.58

query: Please report the recorded pIC50 for OC1(C(F)(F)F)CCCCc2c1[nH]c1c(Cl)cc(Cl)cc21 (stereo not given) .
result: 6.22

query: Recorded pIC50 of `COC[C@]1(OC)CC[C@H]2[C@@H]3CCC4=CC(=O)CCC4=C3[C@@H](c3ccc(/C=N/O)cc3)C[C@@]21C` , please.
result: 8.21

query: What pIC50 value was documented for this compound, O=C1COc2ccc(C3=Nn4cnnc4SC3c3ccccc3F)cc2N1 (stereo not given) ?
result: 5.23

query: # lookup: pIC50 of O=[N+]([O-])c1ccc(C2=NOC3CCCCCCC23)cc1C(F)(F)F (racemic)
result: 6.15

query: # pIC50 lookup, item `COc1cccc(C(=O)Nc2cc(C)c(Oc3ccc(O)cc3)c(C)c2)c1`
result: 5.27

query: I have this compound here, `Cc1nn(CCC(C)(F)F)c(-c2ccc(F)cc2)c1-c1ccc2c(c1)NC(=O)CO2` , and I need its recorded pIC50.
result: 5.04
